# experimental_target: T1, PLCγ1 nSH2 domain (aa 545-662) (UniProt P19174 545-662)
# T1 construct: 15N-labelled for the NMR titration; source: E. coli BL21(DE3), purified (HisTrap, 3C cleavage, SEC)
# T1 sequence (looked up): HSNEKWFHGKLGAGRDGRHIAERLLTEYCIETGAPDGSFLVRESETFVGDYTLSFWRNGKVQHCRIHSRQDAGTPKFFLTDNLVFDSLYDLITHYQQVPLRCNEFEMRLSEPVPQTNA
# test_name: microfluidic diffusional sizing (Fluidity One-W); 200 nM 5,6-FAM peptide held constant, PLCγ1 domains varied from 0 nM to 8000 nM, room temperature, 100 mM MES, 150 mM NaCl, 3 mM TCEP, pH 6.5; hydrodynamic radius fitted; triplicate
# experimental_setup: both partners purified
Non-standard residues stand in square brackets, D forms with d. No end group written: not given here. pY = N[C@@H](Cc1ccc(OP(=O)(O)O)cc1)C(=O)O
measure_name: pKd
Please treat pKd as minus the base-10 logarithm of the molar concentration.

So for {5,6‑FAM}-DDL[pY]EEVLFPRN (last 12 residues of KSHV pK15 cytoplasmic tail; also called 5,6-FAM-labelled pK15 (12mer); phosphorylated pK15 peptide; source: synthetic peptide, bought: Caslo ApS) [5,6-FAM-labelled phosphorylated pK15 12mer peptide] , the logged pKd turned out to be 6.74
